The reported numbers originate from patent US20170152241A9.

target: human 5-HT4(a) (Homo sapiens); assay: Evaluation of agonistic activity in CHO-K1 cells expressing human 5-HT4(a) (GeneBlAzer HTR4-CRE-bla, beta-lactamase reporter); conditions: 5 hours incubation, 8 concentrations
Sequence (Q13639 1-387 isoform Q13639-2): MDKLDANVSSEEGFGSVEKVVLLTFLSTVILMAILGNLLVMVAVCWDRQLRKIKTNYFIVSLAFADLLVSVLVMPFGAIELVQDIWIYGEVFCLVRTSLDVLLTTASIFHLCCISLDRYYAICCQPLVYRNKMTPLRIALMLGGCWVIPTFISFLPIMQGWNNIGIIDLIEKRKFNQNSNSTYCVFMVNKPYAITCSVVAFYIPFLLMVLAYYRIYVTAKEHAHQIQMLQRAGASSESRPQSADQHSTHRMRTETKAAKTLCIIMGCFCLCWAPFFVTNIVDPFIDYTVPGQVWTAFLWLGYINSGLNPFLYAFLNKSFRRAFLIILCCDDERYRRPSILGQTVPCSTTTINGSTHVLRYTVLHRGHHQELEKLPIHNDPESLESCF
Where a name gives a salt, the structure may show the parent alone.
Friendly reminder: EC50 below 0.02 nM is MET, at or above is NOT MET.

// below: answered compounds
CNC(=O)[C@@H]1CCCN(c2nc(Nc3cc(N)cc(C(F)(F)F)c3)nc3c2CCCC3)C1
MET
COc1cc2nc(Nc3cc(N)cc(C(F)(F)F)c3)nc(N3CC[C@H](NC(C)=O)C3)c2cc1OC
NOT MET
N#Cc1cc(N)cc(Nc2nc(N3CC[C@H](NC(=O)Cc4cccs4)C3)c3ccccc3n2)c1
NOT MET

Please state whether EC50 is below 0.02 nM for CC(=O)N[C@H]1CCN(c2nc(Nc3cc(N)cc(C#N)c3)nc3c2CCC3)C1 [Example 168, hydrochloride]
MET

Please state whether EC50 is below 0.02 nM for CC(C)N[C@H]1CCN(c2nc(Nc3cc(N)cc(C#N)c3)nc3ccccc23)C1
NOT MET

Please state whether EC50 is below 0.02 nM for Nc1cc(Nc2nc(N3CCC[C@@H](N)C3)c3ncccc3n2)cc(C(F)(F)F)c1 [Example 167, dihydrochloride]
NOT MET
